Each entry below carries its recorded MIC.
# Test system: E. faecalis ATCC 29212 (HAV#005)
# assay name: MIC by broth microdilution (CLSI)
# Assay type: cell-based
# condition details: Enterococcus faecalis, ATCC29212, 24 h, HAV#005, ATCC 29212; CaMHB, 24 h incubation; read-out: MIC E. faecalis ATCC 29212
# Description: Minimum inhibitory concentrations (MICs) were determined by the broth microdilution method following the Clinical and Laboratory Standards Institute (CLSI) guidelines. […] MICs for P. aeruginosa were recorded in cation-adjusted Mueller-Hinton broth which had been pre-treated with Chelex 100 ion exchange resin according to procedures reported in Ito et al. Antimicrob Agents Chemother (2016) 60 (12), 7396-7401.
Where a name gives a salt, the structure may show the parent alone.
readout label: MIC

compound	endpoint result
CC(C)C[C@@H]1CCO[C@@H]2[C@H](CN[C@@H]2C(=O)N[C@@H]2CC(C)(C)/C=C/CS[C@H]3O[C@H]2[C@H](O)[C@H](O)[C@H]3O)C1 [FSA1503085, formate salt]	0.25 µg/mL
CC(C)C[C@@H]1CCO[C@@H]2[C@H](CN[C@@H]2C(=O)N[C@H]2C3OC(SCC/C=C/[C@@H]2C)C(O)C(O)C3O)C1 (single isomer, unassigned) [FSA1507068, formate salt]	0.125 µg/mL
CC(C)C[C@@H]1CCO[C@@H]2[C@H](CN[C@@H]2C(=O)N[C@@H]2C/C=C\C[C@@H](CO)S[C@H]3O[C@H]2[C@H](O)[C@H](O)[C@H]3O)C1 [FSA1606034, hydrochloride salt]	2 µg/mL
CC(C)C[C@@H]1CCO[C@@H]2[C@H](CN[C@@H]2C(=O)N[C@H]2[C@H]3O[C@H](SCCC/C=C\[C@H]2C)[C@H](O)[C@@H](O)[C@H]3O)C1 [FSA1609096, formate salt]	≤ 0.06 µg/mL
CC(C)C[C@@H]1CCO[C@@H]2[C@H](CN[C@@H]2C(=O)N[C@@H]2C/C=C\C[C@@H](CN3CCOCC3)S[C@H]3O[C@H]2[C@H](O)[C@H](O)[C@H]3O)C1 [FSA1607019, formate salt]	2 µg/mL
CC(C)C[C@@H]1CCO[C@@H]2[C@H](CN[C@@H]2C(=O)N[C@H]2[C@H]3O[C@H](SCCCCC2(C)C)[C@H](O)[C@@H](O)[C@H]3O)C1 [FSA1504068, formate salt]	2 µg/mL
